Provenance of the data: paper PMC2879362

Biological target: UniProt P14555
Sequence (P14555 21-144): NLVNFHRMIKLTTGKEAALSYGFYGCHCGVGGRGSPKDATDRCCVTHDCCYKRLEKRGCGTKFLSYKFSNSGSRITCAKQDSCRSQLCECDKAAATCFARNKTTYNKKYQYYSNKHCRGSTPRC
# IC50 per entry
Reply with the number, then its unit.

O=c1[nH]c(Cc2ccc(OCCCCCOc3ccccc3)cc2)no1 [C7] | 35 µM

QUERY: Quick check: IC50 on UniProt P14555, item Cc1nc2cc(OCCCCCOc3ccc(Cc4noc(=O)[nH]4)cc3)ccc2s1 [C3] ?
RESULT: 5 µM

QUERY: Quick check: IC50 on UniProt P14555, item O=c1[nH]c(Cc2ccc(OCCCCCOc3cc4ccccc4c4ccccc34)cc2)no1 [C8] ?
RESULT: 0.62 µM
